Substrate: O=C(O)C=C(O)C(=O)O
Measurement Protocol: purified protein
Setup Conditions: pH 7.5, 22 °C, 10 mM potassium phosphate, 0.3 mM NADH, malate dehydrogenase, OAA added in dry acetone
Recorded kcat by entry
Reply with just the number (in s⁻¹).

# example entries with known answers
Bs YisK (Bacillus subtilis subsp. subtilis str. 168) (protein) MKFATGELYNRMFVGLIIDDEKIMDLQKAEKKLFELETIPGSLIECIAEGDKFVAHARQLAEWAKKPNDELGSFMYSLSEVKLHAPIPKPSKNIICIGKNYRDHAIEMGSEADIPEHPMVFTKSPVTVTGHGDIVKSHEEVTSQLDYEGELAVVIGKSGTRISKEDAYDHVFGYTIVNDITARDLQKRHKQFFIGKSLDTTCPMGPVLVHKSSIQEPERLKVETRVNGELRQSGSASDMIFSIPELIETLSKGMTLEAGDIIATGTPSGVGKGFTPPKFLRSGDKIDITIDPIGTLSNQIG	237
Ec YcgM (Escherichia coli K-12) (protein) MYQHHNWQGALLDYPVSKVVCVGSNYAKHIKEMGSAVPEEPVLFIKPETALCDLRQPLAIPSDFGSVHHEVELAVLIGATLRQATEEHVRKAIAGYGVALDLTLRDVQGKMKKAGQPWEKAKAFDNSCPLSGFIPAAEFTGDPQNTTLSLSVNGEQRQQGTTADMIHKIVPLIAYMSKFFTLKAGDVVLTGTPDGVGPLQSGDELTVTFDGHSLTTRVL	161

Please give the measured kcat for this protein: Bt FAHD2A (Bos taurus) (protein) ATQLPVLPRSEVTFLAPVTRPDKVVCVGMNYADHCREQNVPVPKEPIIFSKFASAIVGPYDNIILPPESQEVDWEVELAVVIGKRGKYIKATDAMAHVAGFTVAHDVSARDWQMGRNGKQWLLGKTFDTFCPLGPALVTKDSVADPHNLKICCRVNGEVMQSSNTNQMVFKTEELITWVSQFVTLYPGDIILTGTPPGVGVFRKPPVFLKKGDEVQCEIEELGVIINKVV
32.7
